Target: human recombinant HDAC6 (Homo sapiens)
Construct: purchased Calbiochem 382180
Experiment: HDAC6 enzyme activity inhibition assay (HDAC Fluorimetric Drug Discovery Kit)
Type: biochemical
Conditions: HDAC6 over HDAC1
Experimental: In order to examine the HDAC6 selectivity of the compounds of formula I of the present invention by HDAC1 and HDAC6 enzymatic activity inhibition assays, an experiment was performed using a conventional substance as a control. HDAC enzyme activity was measured using a HDAC Fluorimetric Drug Discovery Kit (BML-AK511, 516, Enzo Life Science). […] Based on the resulting values, each IC5, value was calculated using GraphPad Prism4.0 program.
METRIC: HDAC6 selectivity (fold)
Lab book: enter the figure in fold, no units written.

Exercise: May I ask what HDAC6 selectivity (fold) has been recorded for `CCN(CC)c1ccc(N(Cc2ccc(-c3nnc(C(F)F)o3)cc2F)C(=O)N2CCS(=O)(=O)CC2)cc1` ?
Solution: 14

Exercise: May I ask what HDAC6 selectivity (fold) has been recorded for `O=C(N1CCOCC1)N(Cc1cccc(-c2nnc(C(F)(F)F)o2)c1)c1ccccc1` ?
Solution: 1

Exercise: May I ask what HDAC6 selectivity (fold) has been recorded for `O=C(NCCN1CCN(CCc2ccccc2)CC1)N(Cc1ccc(-c2nnc(C(F)F)o2)cc1F)c1ccccc1` ?
Solution: 46

Exercise: May I ask what HDAC6 selectivity (fold) has been recorded for `CCN1CCN(C(=O)N(Cc2ccc(-c3nnc(C(F)F)o3)cn2)c2cccc(Cl)c2)CC1` ?
Solution: 1064

Exercise: May I ask what HDAC6 selectivity (fold) has been recorded for `COc1ccc(N(Cc2ccc(-c3nnc(C(F)(F)F)o3)cn2)C(=O)N2CCS(=O)(=O)CC2)cc1` ?
Solution: 94

Exercise: May I ask what HDAC6 selectivity (fold) has been recorded for `CN1CCN(C(=O)N(Cc2ccc(-c3nnc(C(F)F)o3)cn2)c2ccccc2)CC1` ?
Solution: 357

Exercise: May I ask what HDAC6 selectivity (fold) has been recorded for `O=C(N1CCS(=O)(=O)CC1)N(Cc1ccc(-c2nnc(C(F)F)o2)cc1F)c1ccccc1F` ?
Solution: 2023

====

Biological target: human recombinant HDAC6 (Homo sapiens, UniProt Q9UBN7)
Construct: purchased Calbiochem 382180
Sequence (Q9UBN7 whole entry): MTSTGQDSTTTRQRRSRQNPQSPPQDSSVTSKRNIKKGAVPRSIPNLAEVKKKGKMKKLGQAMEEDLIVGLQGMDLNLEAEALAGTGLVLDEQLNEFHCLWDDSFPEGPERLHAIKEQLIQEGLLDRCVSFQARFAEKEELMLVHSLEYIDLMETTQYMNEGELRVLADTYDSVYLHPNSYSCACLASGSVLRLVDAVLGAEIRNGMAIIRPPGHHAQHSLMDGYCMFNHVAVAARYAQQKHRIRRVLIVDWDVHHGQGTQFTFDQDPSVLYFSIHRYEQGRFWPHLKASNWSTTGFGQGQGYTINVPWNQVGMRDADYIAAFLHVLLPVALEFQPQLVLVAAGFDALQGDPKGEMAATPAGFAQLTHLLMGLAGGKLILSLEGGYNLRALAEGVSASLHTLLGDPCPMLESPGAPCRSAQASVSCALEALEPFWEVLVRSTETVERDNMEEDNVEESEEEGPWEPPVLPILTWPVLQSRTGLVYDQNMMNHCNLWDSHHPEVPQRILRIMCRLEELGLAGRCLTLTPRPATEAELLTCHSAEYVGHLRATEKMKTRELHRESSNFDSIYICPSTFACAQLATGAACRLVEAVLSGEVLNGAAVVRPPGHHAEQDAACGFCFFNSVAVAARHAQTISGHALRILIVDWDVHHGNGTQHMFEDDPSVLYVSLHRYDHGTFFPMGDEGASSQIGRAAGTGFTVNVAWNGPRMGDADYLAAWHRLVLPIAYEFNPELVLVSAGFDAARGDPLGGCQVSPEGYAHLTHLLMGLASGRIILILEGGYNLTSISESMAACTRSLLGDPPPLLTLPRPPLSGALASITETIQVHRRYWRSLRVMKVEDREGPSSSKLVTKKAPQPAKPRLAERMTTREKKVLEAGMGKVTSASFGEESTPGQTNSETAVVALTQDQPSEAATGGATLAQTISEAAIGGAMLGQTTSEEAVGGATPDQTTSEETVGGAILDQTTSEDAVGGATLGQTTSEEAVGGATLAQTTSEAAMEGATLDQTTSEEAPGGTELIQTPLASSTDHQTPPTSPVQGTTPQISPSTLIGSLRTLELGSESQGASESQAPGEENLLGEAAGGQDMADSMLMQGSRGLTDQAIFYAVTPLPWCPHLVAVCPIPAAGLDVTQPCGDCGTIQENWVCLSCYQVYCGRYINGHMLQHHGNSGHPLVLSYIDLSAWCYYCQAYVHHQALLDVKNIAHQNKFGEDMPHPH
Experiment: HDAC6 enzyme activity inhibition assay (HDAC Fluorimetric Drug Discovery Kit)
Type: biochemical
Settings: human recombinant HDAC6, same protocol as HDAC1; read-out: HDAC6
Procedure: In order to examine the HDAC6 selectivity of the compounds of formula I of the present invention by HDAC1 and HDAC6 enzymatic activity inhibition assays, an experiment was performed using a conventional substance as a control. HDAC enzyme activity was measured using a HDAC Fluorimetric Drug Discovery Kit (BML-AK511, 516, Enzo Life Science). […] Based on the resulting values, each IC5, value was calculated using GraphPad Prism4.0 program.
Give measured IC50 for each item. Keep answers brief.
Be sure to follow the number with its unit.

Exercise: May I ask what IC50 has been recorded for `O=C(N1CCOCC1)N(Cc1ccc(-c2nnc(C(F)(F)F)o2)cn1)c1ccc(F)cc1` ?
Solution: 0.188 µM

Exercise: May I ask what IC50 has been recorded for `O=C(N1CCN(C2COC2)CC1)N(Cc1ccc(-c2nnc(C(F)F)o2)cc1)c1cccc(F)c1` ?
Solution: 0.11 µM

Exercise: May I ask what IC50 has been recorded for `O=C(N1CCOCC1)N(Cc1ccc(-c2nnc(C(F)(F)F)o2)cc1)c1ccccc1F` ?
Solution: 0.134 µM

Exercise: May I ask what IC50 has been recorded for `Cc1cccc(N(Cc2ccc(-c3nnc(C(F)F)o3)cc2F)C(=O)N2CC3(COC3)C2)c1` ?
Solution: 0.046 µM

Exercise: May I ask what IC50 has been recorded for `CN(C)[C@@H]1CCN(Cc2ccc(N(Cc3ccc(-c4nnc(C(F)F)o4)cc3F)C(=O)N3CCS(=O)(=O)CC3)cc2)C1` ?
Solution: 0.066 µM

Exercise: May I ask what IC50 has been recorded for `CC1CCN(CCNC(=O)N(Cc2ccc(-c3nnc(C(F)F)o3)cc2F)c2ccccc2)CC1` ?
Solution: 0.124 µM

Exercise: May I ask what IC50 has been recorded for `CCN1CCN(C(=O)N(Cc2ccc(-c3nnc(C(F)(F)F)o3)cc2F)c2cccc(OC)c2)CC1` ?
Solution: 0.249 µM

Exercise: May I ask what IC50 has been recorded for `O=C(N1CCOCC1)N(Cc1ccc(-c2nnc(C(F)(F)F)o2)cn1)c1cccc(F)c1` ?
Solution: 0.08 µM

Exercise: May I ask what IC50 has been recorded for `COc1ccccc1CCN(Cc1ccc(-c2nnc(C(F)F)o2)cc1F)C(=O)N1CCOCC1` ?
Solution: 0.244 µM

Exercise: May I ask what IC50 has been recorded for `O=C(N1CCOCC1)N(Cc1ccc(-c2nnc(C(F)F)o2)cc1F)c1cccc(Cl)c1` ?
Solution: 0.053 µM

Exercise: May I ask what IC50 has been recorded for `CN(C)[C@@H]1CCN(C(=O)N(Cc2ccc(-c3nnc(C(F)F)o3)cc2F)c2ccc(F)c(Cl)c2)C1` ?
Solution: 0.027 µM

Exercise: May I ask what IC50 has been recorded for `CCN1CCN(C(=O)N(Cc2ccc(-c3nnc(C(F)F)o3)cc2F)c2cccc(F)c2F)CC1` ?
Solution: 0.015 µM

Exercise: May I ask what IC50 has been recorded for `CCN1CCN(CCCCOc2ccc(N(Cc3ccc(-c4nnc(C(F)F)o4)cc3F)C(=O)N3CCS(=O)(=O)CC3)cc2)CC1` ?
Solution: 0.256 µM

Exercise: May I ask what IC50 has been recorded for `O=C(N1CCS(=O)(=O)CC1)N(Cc1ccc(-c2nnc(C(F)F)o2)cn1)c1ccc(Oc2ccccc2)cc1` ?
Solution: 0.072 µM

Exercise: May I ask what IC50 has been recorded for `CCN1CCN(C(=O)N(Cc2ccc(-c3nnc(C(F)(F)F)o3)cn2)c2ccc(OC)cc2)CC1` ?
Solution: 0.255 µM
